Target: Chymotrypsinogen A (Bos taurus)
Experiment: The compound was tested for inhibition of Chymotrypsinogen with a pre-incubation time of 15 min
Just a reminder that ties go to Criterion not met: only IC50 strictly below 4 µM counts as Criterion met.

Previously resolved entries follow.
- molecule: "C=CC[C@@H]1C(=O)O[C@H]2CCN(C(=O)OCc3ccccc3)C21 (stereo partly specified)"
  category: "Criterion not met"
- molecule: "C=CC[C@H]1C(=O)N(S(=O)(=O)c2cccc3ccccc23)[C@H]2CCN(C(=O)OCc3ccccc3)C12 (stereo partly specified)"
  category: "Criterion not met"
- molecule: "C=CC[C@H]1C(=O)N(S(C)(=O)=O)[C@H]2CCN(C(=O)OCc3ccccc3)[C@H]12"
  category: "Criterion not met"
- molecule: "C=CC[C@H]1C(=O)O[C@H]2CCN(C(=O)OCc3ccccc3)C21 (stereo partly specified)"
  category: "Criterion not met"

As a next step, examine the molecule that follows.
Lab note: IC50 threshold 4 µM. Does this molecule come in strictly under it? CCC[C@@H](NC(=O)N1C(=O)C(CC)(CC)[C@@H]1Oc1ccc(C(=O)N2CCN(C)CC2)cc1)c1ccc2c(c1)OCO2 Criterion met
